FYI, the data here is from ChEMBL document CHEMBL1143429.

test system: Staphylococcus aureus; assay: Antibacterial activity against Staphylococcus aureus ATCC 25923 by microdilution method; type: functional
Readout: MIC (µg/mL)

{"Compound": "O=c1[nH]c2c(c(=O)[nH]1)C(c1ccc(Cl)cc1)c1c(-c3ccccc3)nn(-c3ccc([N+](=O)[O-])cc3)c1N2 (centres undefined)", "Readout": "MIC", "Result value": 4}
{"Compound": "O=c1[nH]c(=S)[nH]c2c1C(c1ccc([N+](=O)[O-])cc1)c1c(-c3ccccc3)nn(-c3ccccc3)c1N2 (centres undefined)", "Readout": "MIC", "Result value": 4}
{"Compound": "O=c1[nH]c2c(c(=O)[nH]1)C(c1ccc(Br)cc1)c1c(-c3ccccc3)nn(-c3ccc([N+](=O)[O-])cc3)c1N2 (centres undefined)", "Readout": "MIC", "Result value": 4}
{"Compound": "O=c1[nH]c(=S)[nH]c2c1C(c1ccc(Cl)cc1)c1c(-c3ccccc3)nn(-c3ccccc3)c1N2 (centres undefined)", "Readout": "MIC", "Result value": 4}
{"Compound": "CN(C)[C@@H]1C(O)=C(C(N)=O)C(=O)[C@@]2(O)C(O)=C3C(=O)c4c(O)cccc4[C@@](C)(O)[C@H]3C[C@@H]12", "Readout": "MIC", "Result value": 4}
{"Compound": "O=c1[nH]c(=S)[nH]c2c1C(c1ccccc1)c1c(-c3ccccc3)nn(-c3ccc([N+](=O)[O-])cc3)c1N2 (centres undefined)", "Readout": "MIC", "Result value": 3}
{"Compound": "O=c1[nH]c2c(c(=O)[nH]1)C(c1ccccc1)c1c(-c3ccccc3)nn(-c3ccc([N+](=O)[O-])cc3)c1N2 (centres undefined)", "Readout": "MIC", "Result value": 4}
{"Compound": "O=c1[nH]c2c(c(=O)[nH]1)C(c1cccc([N+](=O)[O-])c1)c1c(-c3ccccc3)nn(-c3ccccc3)c1N2 (centres undefined)", "Readout": "MIC", "Result value": 2}
{"Compound": "O=c1[nH]c2c(c(=O)[nH]1)C(c1ccc(Br)cc1)c1c(-c3ccccc3)nn(-c3ccccc3)c1N2 (centres undefined)", "Readout": "MIC", "Result value": 58}
